test method notes: Cytotoxicity in tissue culture (monolayered HeLa cells)
Format: cell-based
condition summary: human, observed at 48 and 72 hours post-treatment, read-out: Cytotoxicity (concentration of compound found to be toxic to the cell)
readout label: MCC (µg/mL)
# output: bare number, implied unit µg/mL

Sample records with MCC:
molecule: O=S(=O)(O)c1ccc(N(Cc2ccc(F)cc2)Cc2ccc(Cl)cc2)cc1 [Example 4]
MCC / µg/mL: 50
//
molecule: O=[N+]([O-])c1cccc(CN(Cc2cccc([N+](=O)[O-])c2)c2ccc(S(=O)(=O)O)cc2)c1 [Example 1]
MCC / µg/mL: 25
//
molecule: O=S(=O)(O)c1ccc(N(Cc2ccc(Br)cc2)Cc2ccc(Br)cc2)cc1 [Example 7]
MCC / µg/mL: 25

Which MCC reading was recorded for the molecule O=S(=O)(O)c1ccc(N(Cc2c(Cl)cccc2Cl)Cc2c(Cl)cccc2Cl)cc1 [Example 2] ?
12.5

###

test method notes: Cytotoxicity in tissue culture (monolayered HeLa cells)
Type: cell-based
condition summary: human, observed at 48 and 72 hours post-treatment, read-out: Cytotoxicity (concentration of compound found to be toxic to the cell)
readout label: MCC (µg/mL)
# output: bare number, implied unit µg/mL

smiles input: O=S(=O)(O)c1ccc(N(Cc2ccc(Cl)cc2)Cc2ccc(Cl)cc2)cc1
MCC / µg/mL: 25

Which MCC reading was recorded for the compound O=S(=O)(O)c1ccc(N(Cc2cccc(Cl)c2)Cc2cccc(Cl)c2)cc1 ?
100

Which MCC reading was recorded for the compound O=S(=O)(O)c1ccc(N(Cc2ccccc2F)Cc2ccccc2F)cc1 ?
100

Which MCC reading was recorded for the compound O=S(=O)(O)c1ccc(N(Cc2ccc(F)cc2)Cc2ccc(F)cc2)cc1 ?
100

Which MCC reading was recorded for the compound O=S(=O)(O)c1ccc(N(Cc2cccc(F)c2)Cc2cccc(F)c2)cc1 ?
100

This collection of values is drawn from patent US4277492A.
